System: As3
protocol summary: microplate specificity test with on- and off-target heavy metals (fluorescence)
Type: cell-based, E. coli
test parameters: on-target = 1, no-toxin control = 0; As 1.3, Cd 0.44, Cr(VI) 2, Cu 20, Pb 1, Hg 0.1, Co 20, Fe 500, Ni 1.7, Zn 7.6 μM
property: fluorescence response of strain As3 (on-target arsenic)
Output: the number by itself.

// [Fe] [Iron] : fluorescence response of strain As3 (on-target arsenic) value = −0.06

// [Ni] [Nickel] : fluorescence response of strain As3 (on-target arsenic) value = −0.08

// [Cd] [Cadmium] : fluorescence response of strain As3 (on-target arsenic) value = −0.13

// [As] [Arsenic] : fluorescence response of strain As3 (on-target arsenic) value = 1.00

// [Cr+6] [Chromium(VI)] : fluorescence response of strain As3 (on-target arsenic) value = −0.22

// [Pb] [Lead] : fluorescence response of strain As3 (on-target arsenic) value = −0.05

// [Co] [Cobalt] : fluorescence response of strain As3 (on-target arsenic) value = 0.30

// [Zn] [Zinc] : fluorescence response of strain As3 (on-target arsenic) value = −0.14

Data credit: patent US20220057378A1
